Just for reference, the METLIN SMRT retention time set (Domingo-Almenara et al. 2019) is where these values come from.

Assay: gradient 5% acetonitrile 3 min, to 50% in 2 min, to 85% in 15 min, held 3 min, 100 µL/min
Settings: column: Zorbax Extend-C18 2.1 x 50 mm; eluents: water / acetonitrile, 0.1% formic acid
Decision: RP-LC retention time beneath 800 s gives 1.0; RP-LC retention time meeting or exceeding 800 s gives 0.0.

**Query** Field: below-cutoff. Rule: recorded RP-LC retention time strictly less than 800 s. Subject: Cc1ccc(NC(=O)Cn2nc(N3CCCC(C)C3)c3ccccc3c2=O)cc1C (stereo not given)
**Result** 0.0

**Query** Please do the same for `CC(=O)c1ccc(NC(=O)c2cc(-c3cccnc3)nc3ccccc23)cc1` as well.
**Result** 1.0

**Query** Please do the same for CCC(C)C(NC(=O)CCc1ccc(OC)cc1)C(=O)Nc1nc2ccccc2[nH]1 (stereo not given) as well.
**Result** 1.0

---

Assay: gradient 5% acetonitrile 3 min, to 50% in 2 min, to 85% in 15 min, held 3 min, 100 µL/min
Settings: column: Zorbax Extend-C18 2.1 x 50 mm; eluents: water / acetonitrile, 0.1% formic acid
Assign met to entries whose RP-LC retention time meets or exceeds 800 s; assign not met to the rest.

**Query** Hi, just wondering whether `Cc1nc(-c2ccc(C(=O)N(C)C)c(F)c2)no1` shows RP-LC retention time of 800 s or higher.
**Result** not met

**Query** Please do the same for `CCc1cc(-c2csc(S(=O)(=O)N3CCN(c4cccc(Cl)c4)CC3)c2)on1` as well.
**Result** met

**Query** Please do the same for Cc1cccc(C2(O)C(=O)N(CC(=O)NCc3ccco3)c3ccccc32)c1 (centres undefined) as well.
**Result** not met

**Query** Please do the same for Cc1ccc(NC(=O)C2CCN(S(=O)(=O)c3ccc4c(c3)NC(=O)C(C)O4)CC2)cc1Cl (centres undefined) as well.
**Result** met

**Query** Please do the same for `O=C(CN1CCN(Cc2ccc(F)cc2)C1=O)NCc1ccccc1C(F)(F)F` as well.
**Result** met

**Query** Please do the same for `Cc1cccc(CN2CCN(CC(=O)NCc3ccc4c(c3)OCO4)C(=O)C2=O)c1` as well.
**Result** not met

**Query** Please do the same for COC(=O)c1cc(S(=O)(=O)N2CCCC2C(=O)N2CCc3ccccc32)cn1C (centres undefined) as well.
**Result** met

**Query** Please do the same for `Cc1nnc(NC(=O)CSc2nnc(NC(=O)Nc3cccs3)s2)s1` as well.
**Result** not met

**Query** Please do the same for `CCCNC(=O)CCc1nc2ccccc2n(CC(=O)Nc2ccccc2C(=O)OC)c1=O` as well.
**Result** met

---

Assay: gradient 5% acetonitrile 3 min, to 50% in 2 min, to 85% in 15 min, held 3 min, 100 µL/min
Settings: column: Zorbax Extend-C18 2.1 x 50 mm; eluents: water / acetonitrile, 0.1% formic acid
Assign satisfied to entries whose RP-LC retention time meets or exceeds 700 s; assign not satisfied to the rest.

**Query** Hi, just wondering whether `Cc1cccc(Oc2cc(N3CCC(C(=O)NCCC4=CCCCC4)CC3)ncn2)c1C` shows RP-LC retention time of 700 s or higher.
**Result** satisfied

**Query** Please do the same for CC1CCCCN1S(=O)(=O)c1ccc2nc(N3CCN(c4ccc(F)cc4)CC3)ccc2c1 (centres undefined) as well.
**Result** satisfied

**Query** Please do the same for `Cc1ccc(NC(=O)c2cn(C)nc2S(=O)(=O)N2CCSCC2)cc1C` as well.
**Result** satisfied

**Query** Please do the same for `Cc1ccccc1CNC(=O)c1cc2n(n1)CCCC2` as well.
**Result** satisfied

**Query** Please do the same for `Cn1c(C2CCN(C(=O)Nc3ccc(F)cc3)CC2)cc(=O)n2nccc12` as well.
**Result** not satisfied

**Query** Please do the same for CCS(=O)(=O)N1CCC(Cn2c(C)cnc2-c2ccccc2)C1 (centres undefined) as well.
**Result** not satisfied

**Query** Please do the same for `O=C(Cc1nc(-c2ccccn2)n[nH]1)Nc1ccc(F)c(F)c1` as well.
**Result** not satisfied

**Query** Please do the same for Cc1ccc(NC(=O)C2CCCN(c3nc4ccsc4c(=O)n3-c3ccc(C)cc3)C2)cc1 (centres undefined) as well.
**Result** satisfied

---

Assay: gradient 5% acetonitrile 3 min, to 50% in 2 min, to 85% in 15 min, held 3 min, 100 µL/min
Conditions: column: Zorbax Extend-C18 2.1 x 50 mm; eluents: water / acetonitrile, 0.1% formic acid
READOUT TYPE: RP-LC retention time (s)
All answers are understood in s, so give the number only.

**Query** Look at this compound and give its reported RP-LC retention time. `CSc1cccc2sc(N(Cc3ccco3)C(=O)c3ccc(C#N)cc3)nc12`
**Result** 1110

**Query** Please do the same for CC1CCCCN1CCCNC(=O)C1CCN(c2nc3cccnc3s2)CC1 (stereo not given) as well.
**Result** 587

**Query** Please do the same for `COc1ccccc1N1CCN(c2ncc(C(F)(F)F)cc2Cl)CC1` as well.
**Result** 1210

**Query** Please do the same for `CC1(C)Cc2cccc(OCC(=O)Nc3ncc([N+](=O)[O-])s3)c2O1` as well.
**Result** 906

**Query** Please do the same for `N#CC1=CN(c2ccc(F)c(F)c2)c2ccc(F)cc2S1(=O)=O` as well.
**Result** 934

**Query** Please do the same for `COc1ccc(CCc2nc3nccc(-c4cccs4)n3n2)cc1` as well.
**Result** 932

**Query** Please do the same for `O=c1c(=O)n(-c2ccc(Br)cc2)ccn1Cc1ccncc1` as well.
**Result** 554

**Query** Please do the same for `O=C(Cn1c(=O)n(-c2ccc(F)cc2)c2ncccc21)NC1CCCC1` as well.
**Result** 773

**Query** Please do the same for `C=CCSC(CC)(CC)C(N)=O` as well.
**Result** 805

**Query** Please do the same for `CC(C)n1c(N2CCN(C(=O)CSc3ccccc3)CC2)cc(=O)n(C(C)C)c1=O` as well.
**Result** 902

---

Exercise: for every item that follows, state its recorded RP-LC retention time.
Experiment: gradient 5% acetonitrile 3 min, to 50% in 2 min, to 85% in 15 min, held 3 min, 100 µL/min
Conditions: column: Zorbax Extend-C18 2.1 x 50 mm; eluents: water / acetonitrile, 0.1% formic acid
Write the quantity with the unit trailing the number.

**Query** Look at this compound and give its reported RP-LC retention time. `O=C(Nc1ncc(Cc2cccc3ccccc23)s1)C1CC1`
**Result** 878 s

**Query** Please do the same for CC1=C(c2ccc(F)cc2)S(=O)(=O)N=C1N1CCCN(C(=O)C2CCOC2)CC1 (stereo not given) as well.
**Result** 886 s

**Query** Please do the same for `Cc1cc(C)c2[nH]c3c(c(=O)c2c1)CN(CC(=O)NCc1ccccc1F)CC3` as well.
**Result** 626 s

**Query** Please do the same for `Nc1n[nH]c(-c2ccc(Cl)cc2)n1` as well.
**Result** 605 s

**Query** Please do the same for `COc1cc(NC(=O)COc2cc(C)nc(N3CCN(c4ccccc4)CC3)n2)cc(OC)c1` as well.
**Result** 821 s

**Query** Please do the same for `CCCN1CCN(C(=O)CN(C)S(=O)(=O)c2ccc3c(c2)CCCC(=O)N3)CC1` as well.
**Result** 577 s

**Query** Please do the same for CCC(CO)NCc1ccc(-c2cccc(Cl)c2)o1 (stereo not given) as well.
**Result** 658 s

**Query** Please do the same for Fc1ccc(C2Cn3nnc(-c4nc(-c5ccncc5)no4)c3CO2)cc1 (stereo not given) as well.
**Result** 912 s

**Query** Please do the same for `Cc1c(-c2ccccc2)n(O)[n+]([O-])c1-c1ccccc1` as well.
**Result** 1020 s

**Query** Please do the same for `CCSc1nnc(-c2nn(C)c3c2CN(C(=O)c2ccccc2)CC3)n1C` as well.
**Result** 716 s

---

Assay: gradient 5% acetonitrile 3 min, to 50% in 2 min, to 85% in 15 min, held 3 min, 100 µL/min
Conditions: column: Zorbax Extend-C18 2.1 x 50 mm; eluents: water / acetonitrile, 0.1% formic acid
Exercise: for every item that follows, state its recorded RP-LC retention time.

**Query** Look at this compound and give its reported RP-LC retention time. `Cc1csc(-c2cc(S(=O)(=O)Nc3cc(Cl)ccc3F)cn2CC(=O)N2CCCC2)n1`
**Result** 924 s

**Query** Please do the same for `CC(C)c1nccn1C1CN(C(=O)CCCc2c[nH]c3ccccc23)C1` as well.
**Result** 631 s

**Query** Please do the same for `COC(=O)C1=CN(c2cc(Cl)c(OC)cc2OC)c2ccc(F)cc2S1(=O)=O` as well.
**Result** 914 s

**Query** Please do the same for `COc1ccc(CN2C(=O)COC[C@H]2C(=O)NCc2ccc(Cl)cc2)c(OC)c1` as well.
**Result** 805 s

**Query** Please do the same for `COc1ccc(NC(=O)c2cnc3c(c2)c(=O)n(C)c(=O)n3-c2ccc(C)cc2)cc1OC` as well.
**Result** 836 s

**Query** Please do the same for `COc1ccc(C(=O)Oc2cc(C)nn2-c2nc3ccccc3[nH]2)cc1` as well.
**Result** 643 s

**Query** Please do the same for Cc1ccc(C)n1-c1nnc(N2CCCC(C(=O)NC3CC3)C2)s1 (centres undefined) as well.
**Result** 780 s

**Query** Please do the same for `CCn1cc(-c2nc(CC(=O)NCc3cccs3)cs2)c2cccnc21` as well.
**Result** 805 s

**Query** Please do the same for Cc1ccc(C)c(S(=O)(=O)N2CCCC2c2nc(-c3ccc(Cl)cc3)no2)c1 (centres undefined) as well.
**Result** 1270 s
